Target: T1, human CCL17 (human, UniProt Q92583 24-94)
T1 construct: Biotinylated in the Fab ELISAs; also called huCCL17; Bt-huCCL17
T1 sequence: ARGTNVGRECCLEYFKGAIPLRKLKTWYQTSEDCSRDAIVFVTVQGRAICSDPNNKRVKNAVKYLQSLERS
Test: not stated in the legend (affinities by MSD-SEA in Examples 3 and 4)
OBSERVATION_TYPE: Kd

BINDER | OBSERVATION_TYPE | VALUE_REPORTED
C17B293 (antibody, IgG1, V domains shown, Expressed as IgG1; Heavy chain S100cA (Kabat) paired with the light chain of C17B258; also called C17M293) VH: EVQLVQSGAEVKKPGESLKISCKGSGYSFTSYWIGWVRQMPGKGLEWMGIIDPSDSDTRYSPSFQGQVTISADKSISTAYLQWSSLKASDTAMYYCARVGPADVWDAFDYWGQGTLVTVSS VL: DIVMTQSPDSLAVSLGERATINCKSSQSVLLSFDNINKLAWYQQKPGQPPKLLIYDASTRESGVPDRFSGSGSGTDFTLTISSLQAEDVAVYYCQQFYSVPSTFGQGTKVEIK | Kd | ≤ 100 nM

Please list Kd recorded for the binder C17B244 (antibody, V domains shown, Full IgG1, kappa) VH: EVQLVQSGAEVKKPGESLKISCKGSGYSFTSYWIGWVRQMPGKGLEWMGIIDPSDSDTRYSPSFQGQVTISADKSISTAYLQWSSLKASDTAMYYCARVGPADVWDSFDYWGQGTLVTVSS VL: DIVMTQSPDSLAVSLGERATINCKSSQSVLSSITNVNDLAWYQQKPGQPPKLLIYTASTRESGVPDRFSGSGSGTDFTLTISSLQAEDVAVYYCQQYYHDPFTFGQGTKVEIK
≤ 100 nM
